Species on record: Rattus norvegicus
procedure-text: DrugMatrix - Regimen: Daily Repeat
Type: toxicity, organism-based, Sprague-Dawley
Set-up: regimen Daily Repeat, gender Male, age 6-8 weeks
measurement-parameters: in vivo, po, 1500 mg/kg, 72 h, tissue Blood, route oral GAVAGE, dose level High, time 3 day, vehicle .5 % CMC
endpoint-label: ABSOLUTE MONOCYTE (CELLS/uL)
Numeric only. Scale: CELLS/uL

Study these solved cases before continuing.
CC(C)(Sc1cc(C(C)(C)C)c(O)c(C(C)(C)C)c1)Sc1cc(C(C)(C)C)c(O)c(C(C)(C)C)c1	38
CCOC(=O)[C@H](CCc1ccccc1)N[C@@H](C)C(=O)N1CCC[C@H]1C(=O)O	127.33
C[C@@H](O)[C@H]1C(=O)N2C(C(=O)O)=C(S[C@@H]3CN[C@H](C(=O)N(C)C)C3)[C@H](C)[C@H]12	0

Next compound, please.
Request: Specify ABSOLUTE MONOCYTE for Nc1nc2c(c(=O)[nH]1)N(C=O)C(CNc1ccc(C(=O)N[C@@H](CCC(=O)O)C(=O)O)cc1)CN2 (some centres undefined) and stop.
Result: 60

----------
Species on record: Rattus norvegicus
procedure-text: DrugMatrix - Regimen: Daily Repeat
Format: toxicity, organism-based, Sprague-Dawley
Parameters: regimen Daily Repeat, gender Male, age 6-8 weeks
measurement-parameters: in vivo, po, 0 mg/kg, 120 h, tissue Plasma, route oral GAVAGE, dose level Control, time 5 day, vehicle 100 % SALINE
Below: a set of entries, each annotated with reported URIC ACID.
Write it as a number; the unit mg/dL goes unstated.

Worked cases, answers included:
Cc1cc(CC(=O)O)n(C)c1C(=O)c1ccc(Cl)cc1 [ZOMEPIRAC]	1.18
CC(=O)OCC(CCn1cnc2cnc(N)nc21)COC(C)=O [FAMCICLOVIR]	0.68
Oc1ccccc1O [CATECHOL]	1.18

Attention now turns to another entry.
Request: Provide URIC ACID value for the following compound: "CCCc1nn(C)c2c(=O)[nH]c(-c3cc(S(=O)(=O)N4CCN(C)CC4)ccc3OCC)nc12"
Result: 0.68

----------
Species on record: Rattus norvegicus
procedure-text: DrugMatrix - Regimen: Daily Repeat
Format: toxicity, organism-based, Sprague-Dawley
Design: regimen Daily Repeat, gender Male, age 6-8 weeks
measurement-parameters: in vivo, po, 1500 mg/kg, 72 h, tissue Plasma, route oral GAVAGE, dose level High, time 3 day, vehicle .5 % CMC
endpoint-label: POTASSIUM (MEQ/L)
I only need the number, in MEQ/L, no unit after it.

Request: Tell me measured POTASSIUM for Nc1nc2c(c(=O)[nH]1)N(C=O)C(CNc1ccc(C(=O)N[C@@H](CCC(=O)O)C(=O)O)cc1)CN2 (stereo not given in full) please.
Result: 6.98

Request: Tell me its POTASSIUM given "CC(C)(Sc1cc(C(C)(C)C)c(O)c(C(C)(C)C)c1)Sc1cc(C(C)(C)C)c(O)c(C(C)(C)C)c1" as the entry.
Result: 7.14

Request: Query POTASSIUM for "C[C@@H](O)[C@H]1C(=O)N2C(C(=O)O)=C(S[C@@H]3CN[C@H](C(=O)N(C)C)C3)[C@H](C)[C@H]12"
Result: 6.87

Request: Query POTASSIUM for "CCOC(=O)[C@H](CCc1ccccc1)N[C@@H](C)C(=O)N1CCC[C@H]1C(=O)O"
Result: 8.04

Request: Kindly indicate its recorded POTASSIUM. Item: "O=c1cc(-c2ccccc2)oc2ccc3ccccc3c12"
Result: 7

Reference for the values: ChEMBL document CHEMBL3885881
